experiment: Electrocardiography in anesthetized rabbits (rabbit in vivo EP effect); details: male, blood, iv, at QT effect dose, total drug
VALUE TYPE: Cmax

Specify measured Cmax for CC(C)[C@@H](NC(=O)[C@@H]1CCC(F)(F)C1)C(=O)N1CC[C@](O)(c2ccc(Cl)cc2)[C@@](C)(O)C1 [Compound I] .
96 µM

---

experiment: Single-dose pharmacokinetics in dogs; type: in vivo; details: male, beagle, plasma; dog, oral solution; read-out: dog oral bioavailability when dosed as solution
VALUE TYPE: bioavailability
The number alone won't do; follow it with the unit.

CC(C)[C@@H](NC(=O)c1cccc(S(N)(=O)=O)c1)C(=O)N1CC[C@](O)(c2ccc(Cl)cc2)C(C)(C)C1 : 100%

Please examine the following record next.
Supply reported bioavailability belonging to this molecule: CC(C)[C@@H](NC(=O)[C@@H]1CCC(F)(F)C1)C(=O)N1CC[C@](O)(c2ccc(Cl)cc2)[C@@](C)(O)C1
82%

Values compiled from patent US8642622B2.
